Just for reference, ChEMBL document CHEMBL5321198 is where these values come from.

Please provide measured Ratio IC50 for the entries that follow.
- Tested on: Plasmodium falciparum
- Test Name: Resistance index, ratio of IC50 for antimalarial activity against chloroquine resistant Plasmodium falciparum W2 infected in human erythrocytes to IC50 for antimalarial activity against chloroquine sensitive Plasmodium falciparum 3D7 infected in human erythrocytes
- Type: functional

Ask: Using the record for COc1ccc(NC(=O)C(c2ccc(F)c(F)c2)N2CCN(c3ncnc4sc5c(c34)CCCC5)CC2)cc1 (stereo not drawn) , report its Ratio IC50.
Result: 0.183

Ask: Entry under review: COc1ccc(NC(=O)C(c2ccc(F)c(Cl)c2)N2CCN(c3ncnc4sc5c(c34)CCCC5)CC2)cc1 (stereo not drawn) . Reported Ratio IC50?
Result: 0.116

Ask: Need Ratio IC50 of COc1ccc(NC(=O)C(c2ccc(OC(F)(F)F)cc2)N2CCN(c3ncnc4sc5c(c34)CCCC5)CC2)cc1 (stereo not drawn) , thanks.
Result: 0.068

Ask: What value of Ratio IC50 has been recorded for this entry: COc1ccc(NC(=O)C(c2ccc(F)cc2)N2CCN(c3ncnc4sc5c(c34)CCCC5)CC2)cc1 (stereo not drawn)
Result: 0.173

Ask: Item under review: COc1ccc(NC(=O)C(c2ccc(OC)cc2)N2CCN(c3ncnc4sc5c(c34)CCCC5)CC2)cc1 (stereo not drawn) . Reported Ratio IC50?
Result: 0.268

Ask: Query (compound): COc1ccc(NC(=O)C(c2ccc(C(F)(F)F)cc2)N2CCN(c3ncnc4sc5c(c34)CCCC5)CC2)cc1 (stereo not drawn) ; field requested: Ratio IC50
Result: 0.067

Ask: Query (compound): COc1ccc(NC(=O)C(c2ccc(C)cc2)N2CCN(c3ncnc4sc5c(c34)CCCC5)CC2)cc1 (stereo not drawn) ; field requested: Ratio IC50
Result: 0.387

Ask: Quick check: Ratio IC50 of COc1ccc(NC(=O)C(c2ccc(Cl)c(Cl)c2)N2CCN(c3ncnc4sc5c(c34)CCCC5)CC2)cc1 (stereo not drawn) ?
Result: 0.073

###

- Tested on: A549
- Test Name: Cytotoxicity against human A549 cells incubated for 24 hrs by MTT assay
- Format: functional, cell-based
- Experimental Context: A549, 24 h
Can you tell me pIC50 for the items I'm about to list?
Remember, pIC50 is on a log scale: it is -log10 of the molar concentration.

Ask: Given the compound COc1ccc(NC(=O)C(c2ccc(F)c(Cl)c2)N2CCN(c3ncnc4sc5c(c34)CCCC5)CC2)cc1 (stereo not given) , what is its reported pIC50?
Result: 6.37

Ask: Give its pIC50 value. Item: COc1ccc(NC(=O)C(c2ccc(C(F)(F)F)cc2)N2CCN(c3ncnc4sc5c(c34)CCCC5)CC2)cc1 (stereo not given)
Result: 7.10

Ask: Given the compound COc1ccc(NC(=O)C(c2ccc(F)c(F)c2)N2CCN(c3ncnc4sc5c(c34)CCCC5)CC2)cc1 (stereo not given) , what is its reported pIC50?
Result: 6.12

Ask: I have this compound here, COc1ccc(NC(=O)C(c2ccc(OC(F)(F)F)cc2)N2CCN(c3ncnc4sc5c(c34)CCCC5)CC2)cc1 (stereo not given) , and I need its recorded pIC50.
Result: 6.43

Ask: I'd like to know its pIC50. The compound in question is COc1ccc(NC(=O)C(c2ccc(Cl)c(Cl)c2)N2CCN(c3ncnc4sc5c(c34)CCCC5)CC2)cc1 (stereo not given)
Result: 6.09

###

- System: Plasmodium falciparum
- Test Name: Antimalarial activity against chloroquine resistant Plasmodium falciparum W2 infected in human erythrocytes assessed as inhibition of parasite growth incubated for 48 hrs by YOYO-1 dye based flow cytometric analysis
- Type: functional, organism-based
- Experimental Context: W2, 48 h
Property: pIC50
Formally, pIC50 is defined as -log10 of the concentration c, with c in mol/L.

Ask: What value of pIC50 on Plasmodium falciparum does COc1ccc(NC(=O)C(c2ccc(C)cc2)N2CCN(c3ncnc4sc5c(c34)CCCC5)CC2)cc1 (stereo unspecified) have?
Result: 6.57

Ask: Under Plasmodium falciparum: pIC50 value of COc1ccc(NC(=O)C(c2ccc(F)c(Cl)c2)N2CCN(c3ncnc4sc5c(c34)CCCC5)CC2)cc1 (stereo unspecified) ?
Result: 6.90

Ask: Checklist item: pIC50 tested on Plasmodium falciparum, entry COc1ccc(NC(=O)C(c2ccc(F)cc2)N2CCN(c3ncnc4sc5c(c34)CCCC5)CC2)cc1 (stereo unspecified) , value?
Result: 6.77

Ask: Request - read-out pIC50 | tested on Plasmodium falciparum | compound COc1ccc(NC(=O)C(c2ccc(OC(F)(F)F)cc2)N2CCN(c3ncnc4sc5c(c34)CCCC5)CC2)cc1 (stereo unspecified)
Result: 7.21

Ask: Query pIC50 on Plasmodium falciparum for COc1ccc(NC(=O)C(c2ccc(Cl)c(Cl)c2)N2CCN(c3ncnc4sc5c(c34)CCCC5)CC2)cc1 (stereo unspecified)
Result: 7.17

Ask: Find the measured pIC50: item COc1ccc(NC(=O)C(c2ccc(F)c(F)c2)N2CCN(c3ncnc4sc5c(c34)CCCC5)CC2)cc1 (stereo unspecified) , target or system Plasmodium falciparum.
Result: 6.88

Ask: Lab note: need pIC50 for COc1ccc(NC(=O)C(c2ccc(C(F)(F)F)cc2)N2CCN(c3ncnc4sc5c(c34)CCCC5)CC2)cc1 (stereo unspecified) on Plasmodium falciparum, anyone have it?
Result: 7.25

Ask: Request: pIC50, test system Plasmodium falciparum, entry Cc1ccc(C(C(=O)O)N2CCN(c3ncnc4sc5c(c34)CCCC5)CC2)cc1 (stereo unspecified)
Result: 5.07

Ask: # returns recorded pIC50 (system: Plasmodium falciparum) for COc1ccc(NC(=O)C(c2ccc(OC)cc2)N2CCN(c3ncnc4sc5c(c34)CCCC5)CC2)cc1 (stereo unspecified)
Result: 6.73

Ask: Any idea what pIC50 came out for O=C(O)C(c1ccc(C(F)(F)F)cc1)N1CCN(c2ncnc3sc4c(c23)CCCC4)CC1 (stereo unspecified) on Plasmodium falciparum?
Result: 5.18

###

- Test system: Plasmodium falciparum
- Test Name: Antimalarial activity against chloroquine sensitive Plasmodium falciparum 3D7 infected in human erythrocytes assessed as inhibition of parasite growth incubated for 48 hrs by YOYO-1 dye based flow cytometric analysis
- Assay type: functional, organism-based
- Experimental Context: 3D7, 48 h
Property: pIC50
For clarity, pIC50 is expressed as the negative log10 of concentration in mol/L.

Ask: For COc1ccc(NC(=O)C(c2ccc(OC(F)(F)F)cc2)N2CCN(c3ncnc4sc5c(c34)CCCC5)CC2)cc1 (centres undefined) , what is its reported pIC50?
Result: 6.05

Ask: Any idea what pIC50 was measured for COc1ccc(NC(=O)C(c2ccc(C)cc2)N2CCN(c3ncnc4sc5c(c34)CCCC5)CC2)cc1 (centres undefined) ?
Result: 6.16

Ask: Field request: pIC50 | item: COc1ccc(NC(=O)C(c2ccc(F)c(Cl)c2)N2CCN(c3ncnc4sc5c(c34)CCCC5)CC2)cc1 (centres undefined)
Result: 5.97

Ask: Give the measured pIC50 of COc1ccc(NC(=O)C(c2ccc(C(F)(F)F)cc2)N2CCN(c3ncnc4sc5c(c34)CCCC5)CC2)cc1 (centres undefined) .
Result: 6.08

###

- Test Name: Cytotoxicity against human HPL1D cells incubated for 24 hrs by MTT assay
- Assay type: toxicity, cell-based
// assign Met if IC50 at 24 h falls strictly below 30 µM, else Not met (ties count as Not met)

Ask: Item COc1ccc(NC(=O)C(c2ccc(OC(F)(F)F)cc2)N2CCN(c3ncnc4sc5c(c34)CCCC5)CC2)cc1 (stereo not given) : IC50 at 24 h beneath 30 µM, strictly?
Result: Met

Ask: I wonder whether COc1ccc(NC(=O)C(c2ccc(F)c(Cl)c2)N2CCN(c3ncnc4sc5c(c34)CCCC5)CC2)cc1 (stereo not given) has IC50 at 24 h below 30 µM. Can you tell?
Result: Not met

Ask: Given COc1ccc(NC(=O)C(c2ccc(F)c(F)c2)N2CCN(c3ncnc4sc5c(c34)CCCC5)CC2)cc1 (stereo not given) , is recorded IC50 at 24 h strictly lower than 30 µM?
Result: Met

Ask: Below 30 µM on IC50 at 24 h? Entry COc1ccc(NC(=O)C(c2ccc(Cl)c(Cl)c2)N2CCN(c3ncnc4sc5c(c34)CCCC5)CC2)cc1 (stereo not given)
Result: Not met

Ask: Report whether reported IC50 at 24 h is lower than 30 µM (strictly) for COc1ccc(NC(=O)C(c2ccc(C(F)(F)F)cc2)N2CCN(c3ncnc4sc5c(c34)CCCC5)CC2)cc1 (stereo not given)
Result: Not met

###

Please provide measured IC50 for the entries that follow.
- System: MDA-MB-231
- Test Name: Cytotoxicity against human MDA-MB-231 cells incubated for 24 hrs by MTT assay
- Format: functional, cell-based
- Experimental Context: MDA-MB-231, 24 h
Write down the numeric answer in nM and omit the unit.

Ask: Fill blank: measured IC50 of the compound COc1ccc(NC(=O)C(c2ccc(OC(F)(F)F)cc2)N2CCN(c3ncnc4sc5c(c34)CCCC5)CC2)cc1 (stereo unspecified) is ____.
Result: 460

Ask: IC50 for COc1ccc(NC(=O)C(c2ccc(F)c(F)c2)N2CCN(c3ncnc4sc5c(c34)CCCC5)CC2)cc1 (stereo unspecified) ?
Result: 310

Ask: For COc1ccc(NC(=O)C(c2ccc(Cl)c(Cl)c2)N2CCN(c3ncnc4sc5c(c34)CCCC5)CC2)cc1 (stereo unspecified) , what is its reported IC50?
Result: 740

Ask: Given the entry COc1cccc2c1C(=O)c1c(O)c3c(c(O)c1C2=O)C[C@@](O)(C(=O)CO)C[C@@H]3O[C@H]1C[C@H](N)[C@H](O)[C@H](C)O1 , report its measured IC50.
Result: 5800

Ask: Give the measured IC50 of COc1ccc(NC(=O)C(c2ccc(F)c(Cl)c2)N2CCN(c3ncnc4sc5c(c34)CCCC5)CC2)cc1 (stereo unspecified) .
Result: 520

Ask: For COc1ccc(NC(=O)C(c2ccc(C(F)(F)F)cc2)N2CCN(c3ncnc4sc5c(c34)CCCC5)CC2)cc1 (stereo unspecified) , what is its reported IC50?
Result: 110
